# System: HS 578T breast
# protocol-text: NCI tumour cell line growth inhibition, 48 h
TGI: recorded values
Report the value in µM with no unit label.

Please review the entries below; each comes with its answer.
N#Cc1ccc(N2Cc3ccccc3OC3=C2C(=O)c2c(O)ccc(O)c2C3=O)cc1: 7.07
COc1cnc2c(c1)C(=O)c1c-2n(CCCN2CCC(O)CC2)c(=O)c2cc(F)ccc12: 52.4
CC(=O)OC(C)c1cc2c(s1)C(=O)c1scc(C(C)OC(C)=O)c1C2=O (stereo not given): 1.41
O=C(O)c1cc2cc(c1)N=Cc1ccccc1OCc1cccc(n1)COc1ccccc1C=N2: 13.1
Oc1ccc(O)c(-c2cc(-c3ccccc3)nn2-c2ccccc2)c1: 68

Request body: readout TGI, system HS 578T breast, query CN1CCN(Cc2ccc(NC(=O)c3cncc(C#Cc4cncc5ncccc45)c3)cc2C(F)(F)F)CC1 . Return the value.
7.93
